Numbers sourced from paper PMC9911399.

Molecular target: T1, RBFOX1 RRM (Homo sapiens, UniProt Q9NWB1 109-208)
T1 sequence: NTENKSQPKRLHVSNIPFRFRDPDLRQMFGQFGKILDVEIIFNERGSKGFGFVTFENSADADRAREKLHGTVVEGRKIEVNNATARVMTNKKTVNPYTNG
Test: EMSA; HiTS-Eq, 1 nM pool, 10 min; buffer printed only for the single-RNA assays: 10 mM Tris pH 7.5, 150 mM NaCl, 3.4 mM EDTA, 0.001% NP-40, 30 C
Conditions: tags: His6 N-terminal (pET28a); label: 5' 32P
The full ranking holds about 16,000 sequences; the median of “ka relative to ugcaugu” is about 0.0091, and the highest 2% start at about 0.032. Shown is part of a subset that was picked to be rich in the highest values.
Record form. Attribute: binding signal. Fill in for each entry.

What binding signal value was documented for this binder, GCUUGCA (DNA:RNA) RNA: GGGAGACCGGAAUUCAGAUUGUCCGCUUGCAUUAAAUCCCGUCGUAGCCACCA DNA 1: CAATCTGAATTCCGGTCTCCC DNA 2: TGGTGGCTACGACGGGATT ?
0.0329 KA relative to UGCAUGU

// returns reported binding signal for input CGUUGCA (DNA:RNA) RNA: GGGAGACCGGAAUUCAGAUUGUCCCGUUGCAUUAAAUCCCGUCGUAGCCACCA DNA 1: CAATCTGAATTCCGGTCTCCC DNA 2: TGGTGGCTACGACGGGATT
0.0228 KA relative to UGCAUGU

Fill in the blank: the reported binding signal of UAGUGAU (DNA:RNA) RNA: GGGAGACCGGAAUUCAGAUUGUCCUAGUGAUUUAAAUCCCGUCGUAGCCACCA DNA 1: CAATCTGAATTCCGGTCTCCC DNA 2: TGGTGGCTACGACGGGATT is ____.
0.00564 KA relative to UGCAUGU

# query: binding signal of entry AGUUGGA (DNA:RNA) RNA: GGGAGACCGGAAUUCAGAUUGUCCAGUUGGAUUAAAUCCCGUCGUAGCCACCA DNA 1: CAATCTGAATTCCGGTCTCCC DNA 2: TGGTGGCTACGACGGGATT
0.00398 KA relative to UGCAUGU
